# Tested on: RIOK3;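 further: KINOMEscan kinase panel screen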
# ASSAY_CONDITIONS: concentration: 1 μM, replicates: in singlicate; n = 1
I'd appreciate it if you could supply %Inh values for the items below.
Numbers only, in %.

SMILES_CODE: O=C(Nc1ccccc1F)NC1CCN(c2ccnc(Nc3ccc(F)cc3)n2)CC1
MEASURED_ON: RIOK3
ASSAY_ENDPOINT: %Inh
ASSAY_VALUE: 43

SMILES_CODE: CN(c1ccc(NC(=O)Nc2cc(C(F)(F)F)ccc2F)cc1)c1ccnc(Nc2ccc(S(N)(=O)=O)cc2)n1
MEASURED_ON: RIOK3
ASSAY_ENDPOINT: %Inh
ASSAY_VALUE: 40

Batch lookup, %Inh per entry.
1. O=C(Nc1n[nH]c2cc(-c3ccoc3)ccc12)C1CC1
2. Nc1ncc(-c2cccnc2)c2scc(-c3ccc4c(c3)CCN4C(=O)Cc3ccccc3)c12

Reply:
[0, 22]

All values here come from paper PMC5540273.
